system: OVCAR8; experiment: drug sensitivity score (DSS2) on cancer cell count; higher = more sensitive; extreme values may be limits of the assay; conditions: co-cultured fibroblast: WI38; 72 h

# molecule, drug sensitivity score (DSS)
data = [
    ("CC(O)(CS(=O)(=O)c1ccc(F)cc1)C(=O)Nc1ccc(C#N)c(C(F)(F)F)c1 (configuration not stated) [Bicalutamide]", 0),
    ("C=CC(=O)N1CC/C(=C\\c2ccc(F)c([N+](=O)[O-])c2)C(=O)/C(=C/c2ccc(F)c([N+](=O)[O-])c2)C1", 31.1),
    ("Cc1cn(-c2cc(NC(=O)c3ccc(C)c(Nc4nccc(-c5cccnc5)n4)c3)cc(C(F)(F)F)c2)cn1", 11),
    ("Cc1ncc(Cl)cc1NCc1ccc(C(=O)N[C@@H](CC2CCCC2)C(=O)NC2CC2)s1", 0),
    ("C[C@@H]1COC(Nc2ccc3ncnc(Nc4ccc(OCc5nccs5)c(Cl)c4)c3c2)=N1", 2),
    ("CC(C)n1nc(-c2ccc3oc(N)nc3c2)c2c(N)ncnc21", 7.9),
    ("COc1cccc2c1C(=O)c1c(O)c3c(c(O)c1C2=O)C[C@@](O)(C(=O)CO)C[C@@H]3O[C@H]1C[C@H](N)[C@H](O)[C@H](C)O1", 12.3),
]

----------
Listing of entries alongside the reported drug sensitivity score.
system: OVCAR8; experiment: drug sensitivity score (DSS2) on cancer cell count; higher = more sensitive; extreme values may be limits of the assay; conditions: co-cultured fibroblast: BJHTERT; 72 h
endpointName: drug sensitivity score (DSS)

# compound, reportedMeasurement
rows = [
    ("CCc1cnn2c(NCc3ccc[n+]([O-])c3)cc(N3CCCC[C@H]3CCO)nc12 [Dinaciclib]", 26.4),
    ("COc1cccc2c1C(=O)c1c(O)c3c(c(O)c1C2=O)C[C@@](O)(C(C)=O)C[C@@H]3O[C@H]1C[C@H](N)[C@H](O)[C@H](C)O1 [Daunorubicin]", 14.7),
    ("NC(=O)c1cccc2cn(-c3ccc([C@@H]4CCCNC4)cc3)nc12 [Niraparib]", 14.9),
    ("CC1(C)OCCn2c1nc1c(N3CCOCC3)nc(-c3cnc(N)nc3)nc12 [GDC-0084]", 8.3),
    ("NC(=O)/C(=C/n1cnc(-c2cc(C(F)(F)F)cc(C(F)(F)F)c2)n1)c1cncnc1 [Eltanexor]", 26.7),
    ("COc1ccc(-c2ccc3ncc4c(c3c2)n(-c2ccc(N3CCNCC3)c(C(F)(F)F)c2)c(=O)n4C)cn1 [NVP-BGT226]", 19.5),
    ("Cc1cc(F)c(C(=O)Nc2cccc(-c3nncn3C(C)C)n2)cc1-n1cnc(C2CC2)c1 [Selonsertib]", 0),
    ("CN1CCN(c2ccc3nc(-c4c(N)c5c(F)cccc5[nH]c4=O)[nH]c3c2)CC1 [Dovitinib]", 0.5),
    ("CN[C@@H](C)C(=O)N[C@H]1CN(C(=O)CC(C)C)CC[C@H]2CC[C@@H](C(=O)NC(c3ccccc3)c3ccccc3)N2C1=O [AT-406]", 10),
    ("Cc1ccc(Nc2nccc(N(C)c3ccc4c(C)n(C)nc4c3)n2)cc1S(N)(=O)=O [Pazopanib]", 0),
    ("Cc1ccc(NC(=O)c2ccc(CN3CCN(C)CC3)cc2)cc1Nc1nc(-c2cccnc2)cs1 [Masitinib]", 3.9),
    ("O=C(NOCCO)c1ccc2cncn2c1Nc1ccc(I)cc1F [GDC-0623]", 7.5),
    ("C[C@@H]1C=C2C(=O)O[C@@H]3CC[C@H](C1)[C@]23O [Galiellalactone]", 0),
    ("Cn1cnc2c(F)c(Nc3ccc(Br)cc3F)c(C(=O)NOCCO)cc21 [Binimetinib]", 2.4),
    ("CC[C@@H](C(=O)[C@@H](C)[C@@H](O)[C@H](C)[C@@H]1O[C@@H]([C@@H](CC)C(=O)O)CC[C@@H]1C)[C@H]1O[C@]2(C=C[C@@H](O)[C@]3(CC[C@@](C)([C@H]4CC[C@](O)(CC)[C@H](C)O4)O3)O2)[C@H](C)C[C@@H]1C [Salinomycin]", 22.1),
    ("Cc1cc(Nc2cc(N3CCN(C)CC3)nc(/C=C/c3ccccc3)n2)n[nH]1 [ENMD-2076]", 13.1),
    ("O=C1c2c(O)ccc(O)c2C(=O)c2c(NCCNCCO)ccc(NCCNCCO)c21 [Mitoxantrone]", 20.4),
    ("COc1cc(C(=O)O)ccc1NC(=O)[C@@H]1N[C@@H](CC(C)(C)C)[C@](C#N)(c2ccc(Cl)cc2F)[C@H]1c1cccc(Cl)c1F [Idasanutlin]", 1.3),
    ("Cc1cc(C)c(CNC(=O)c2cc(-c3ccc(CN4CCOCC4)cc3)cc3c2cnn3C2CCCC2)c(=O)[nH]1 [EPZ-5687]", 0),
    ("C=CC(=O)Nc1cc2c(Nc3ccc(F)c(Cl)c3)ncnc2cc1OCCCN1CCOCC1 [Canertinib]", 9.6),
    ("N#Cc1ccc(COC[C@H]2O[C@@H](n3c(NCc4ccc(Cl)c(Cl)c4)nc4c(N)ncnc43)[C@H](O)[C@@H]2O)cc1", 1),
    ("C[C@]12C=CC(=O)C=C1CC[C@@H]1[C@@H]2[C@@H](O)C[C@@]2(C)[C@H]1CC[C@]2(O)C(=O)CO [Prednisolone]", 0.3),
    ("CC(C)Cn1cnc2c(N)nc3ccccc3c21 [Imiquimod]", 0.4),
    ("CCn1cc(-c2ccnc3[nH]c(-c4cccc(CN(C)C)c4)cc23)c(-c2ccc(NC(=O)N(C)C)cc2)n1", 12.3),
    ("CCC1=C[C@@H]2CN(C1)Cc1c([nH]c3ccccc13)[C@@](C(=O)OC)(c1cc3c(cc1OC)N(C)[C@H]1[C@@](O)(C(=O)OC)[C@H](OC(C)=O)[C@]4(CC)C=CCN5CC[C@]31[C@@H]54)C2 [Vinorelbine]", 38.8),
    ("C=CC(=O)Nc1cccc(Nc2nc(Nc3ccc(OCCOC)cc3)ncc2F)c1 [Spebrutinib]", 0),
    ("CC[C@H](NC(=O)[C@H](C)NC)C(=O)N1C[C@@H](O)C[C@H]1Cc1c(-c2[nH]c3cc(F)ccc3c2C[C@@H]2C[C@H](O)CN2C(=O)[C@H](CC)NC(=O)[C@H](C)NC)[nH]c2cc(F)ccc12 [Birinapant]", 15.9),
    ("Cc1nc(-c2cn3c(n2)-c2ccc(-c4cnn(C(C)(C)C(N)=O)c4)cc2OCC3)n(C(C)C)n1 [Taselisib]", 3.1),
    ("CNC(=O)c1cc(Oc2ccc(NC(=O)Nc3ccc(Cl)c(C(F)(F)F)c3)c(F)c2)ccn1 [Regorafenib]", 5.4),
]

----------
test system: OVCAR8; experiment: drug sensitivity score (DSS2) on cancer cell count; higher = more sensitive; extreme values may be limits of the assay; details: co-cultured fibroblast: WI38; 72 h

# compound, displayUnit, drug sensitivity score
records = [
    ("NC(=O)c1cccc(-c2cccc(OC(=O)NC3CCCCC3)c2)c1", "DSS", 0),
    ("COc1cc(Nc2ncc(F)c(Nc3ccc4c(n3)NC(=O)C(C)(C)O4)n2)cc(OC)c1OC", "DSS", 4.3),
    ("COCCOc1cnc2ccn([C@H](C)c3nnc4c(F)cc(-c5cnn(C)c5)cn34)c(=O)c2c1", "DSS", 0),
    ("CCN1CCN(Cc2ccc(Nc3ncc(F)c(-c4cc(F)c5nc(C)n(C(C)C)c5c4)n3)nc2)CC1", "DSS", 0),
    ("C=CCn1c(=O)c2cnc(Nc3ccc(N4CCN(C)CC4)cc3)nc2n1-c1cccc(C(C)(C)O)n1", "DSS", 14.9),
    ("COc1cc(C)[nH]c(=O)c1CNC(=O)c1c(C)n([C@H](C)C2CCOCC2)c2ccccc12", "DSS", 0),
    ("COc1cc(N2CCC(N3CCN(C)CC3)CC2)ccc1Nc1ncc(Cl)c(Nc2ccccc2P(C)(C)=O)n1", "DSS", 7.9),
    ("CCOc1cc2ncc(C#N)c(Nc3ccc(OCc4ccccn4)c(Cl)c3)c2cc1NC(=O)/C=C/CN(C)C", "DSS", 3),
    ("COC(=O)c1ccc2c(c1)NC(=O)/C2=C(\\Nc1ccc(N(C)C(=O)CN2CCN(C)CC2)cc1)c1ccccc1", "DSS", 4.6),
    ("CC#CC(=O)N1CC[C@@H](n2c(=O)n(-c3ccc(Oc4ccccc4)cc3)c3c(N)ncnc32)C1", "DSS", 0),
    ("COc1cc2c(Nc3ccc(Cl)c(Cl)c3F)ncnc2cc1OC[C@@H]1C[C@@H]2CN(C)C[C@@H]2C1", "DSS", 0.4),
    ("Cc1ccc(-c2cc(C(F)(F)F)nn2-c2ccc(S(N)(=O)=O)cc2)cc1", "DSS", 0),
    ("CNc1nc(-c2ccc3c(N)n[nH]c3c2)cc(N2C[C@@H](C(=O)NC3CCCCC3)CC[C@H]2C)n1", "DSS", 0.1),
    ("Cc1cn(-c2cc(NC(=O)c3ccc(C)c(Nc4nccc(-c5cnccn5)n4)c3)cc(C(F)(F)F)c2)cn1", "DSS", 6.2),
    ("CNC(=O)c1ccc(N2C(=S)N(c3cnc(C#N)c(C(F)(F)F)c3)C(=O)C23CCC3)cc1F [Apalutamide]", "DSS", 0),
    ("CC(C)[C@H]1C(=O)N[C@@H](CCCNC(=N)N)C(=O)NCC(=O)N[C@@H](CC(=O)O)C(=O)N[C@H](Cc2ccccc2)C(=O)N1C [Cilengitide]", "DSS", 16.3),
    ("CCOC(=O)C1=CCCC[C@H]1S(=O)(=O)Nc1ccc(F)cc1Cl", "DSS", 0),
]
